test system: Mycobacterium tuberculosis H37Rv; assay: Antimycobacterial microdilution broth MIC (Alamar Blue); assay type: cell-based; conditions: Mycobacterium tuberculosis, H37RV, pH 6.6, M. tuberculosis H37Rv, Middlebrook 7H9 pH 6.6
MEASUREMENT_LABEL: MIC

The cases that follow already have their MIC on record.
Nc1nccnc1C(=O)Nc1ccccc1 [Compound 13, 3-Amino-N-phenylpyrazine-2-carboxamide] | > 100 µg/mL
NC(=O)c1cnccn1 [PZA, Pyrazinamide, reference compound] | 100 µg/mL
Nc1nccnc1C(=O)Nc1ccc(C(F)(F)F)cc1 | 50 µg/mL
COc1ccc(NC(=O)c2nccnc2N)c(OC)c1 | 12.5 µg/mL
COc1ccc(CNC(=O)c2nccnc2N)c(OC)c1 | > 100 µg/mL
Nc1nccnc1C(=O)NCc1cccc(C(F)(F)F)c1 | 50 to 100 µg/mL
CCCCCNC(=O)c1nccnc1N [Compound 9, 3-Amino-N-pentylpyrazine-2-carboxamide] | > 100 µg/mL
Nc1nccnc1C(=O)NCc1ccccc1 [Compound 1, 3-Amino-N-benzylpyrazine-2-carboxamide] | > 100 µg/mL

Hello, I would appreciate it if you could give MIC for each entry below.
1. NNC(=O)c1ccncc1 [INH, isoniazid, reference compound]
2. Cc1ccc(CNC(=O)c2nccnc2N)cc1
3. Nc1nccnc1C(=O)Nc1ccc(Cl)c(Cl)c1
4. Cc1ccccc1CNC(=O)c1nccnc1N
5. COc1ccc(CNC(=O)c2nccnc2N)cc1

["0.1 to 0.2 µg/mL", "50 to 100 µg/mL", "50 µg/mL", "> 100 µg/mL", "50 to 100 µg/mL"]

Hello, I would appreciate it if you could give MIC for each entry below.
1. Cc1ccc(C)c(NC(=O)c2nccnc2N)c1
2. Nc1nccnc1C(=O)Nc1ccc(F)cc1F
3. CCCCCCNC(=O)c1nccnc1N [Compound 10, 3-Amino-N-hexylpyrazine-2-carboxamide]
4. CCCCCCCCNC(=O)c1nccnc1N [Compound 12, 3-Amino-N-octylpyrazine-2-carboxamide]

> 100 µg/mL
> 100 µg/mL
100 µg/mL
25 µg/mL

----------
assay: Lipophilicity by reverse phase HPLC (log k); conditions: RP-HPLC C18, MeOH 70% / H2O 30%, 30 °C
Decide using log k: a value greater than or equal to 0.3 is label 1, a smaller one is label 0.

Worked set:
Cc1ccc(CNC(=O)c2nccnc2N)cc1 | label 0
Nc1nccnc1C(=O)NCc1ccccc1 [Compound 1, 3-Amino-N-benzylpyrazine-2-carboxamide] | label 0
COc1ccc(CNC(=O)c2nccnc2N)c(OC)c1 | label 0
CCCCCCCNC(=O)c1nccnc1N [Compound 11, 3-Amino-N-heptylpyrazine-2-carboxamide] | label 1

From here, focus on the item given below.
For this compound, is measured log k 0.3 or higher? CCCCCNC(=O)c1nccnc1N [Compound 9, 3-Amino-N-pentylpyrazine-2-carboxamide]
label 1
